# Read-out: Thyroid Hormone Responsive (THRSP), THRSP (gene 7069)
# method.notes: LTEA_HepaRG_THRSP: Life Technologies and Expression Analysis (LTEA) Assay for Thyroid Hormone Responsive (THRSP) using HepaRG (AID 2283536)
# assay.context: mRNA level, 48 h; actives raise or lower the signal
The source made the active and inactive calls. Rule for the calls: active = hit-call score of the fitted dose curve at least 0.9, where 1 is the maximum; inactive = score below 0.9.
measurement.label: AC50

Consider the worked cases shown below.
- compound: "CC(C)(c1cc(Br)c(O)c(Br)c1)c1cc(Br)c(O)c(Br)c1"
  experimental.result: "inactive"
- compound: "Cc1ccc2oc(CN(Cc3ccccc3)C(=O)Nc3c(F)cc(F)cc3F)c(-c3ccc(Cl)cc3)c2c1"
  experimental.result: "inactive"
- compound: "Cc1cc(F)ccc1-c1cc(N2CC[C@@H](O)[C@H]2CO)ncc1N(C)C(=O)C(C)(C)c1cc(C(F)(F)F)cc(C(F)(F)F)c1"
  experimental.result: "20.6 µM (active)"
- compound: "OC12N=C(c3ccccc3)SC1Cc1cc(Cl)ccc12 (stereo not given)"
  experimental.result: "16.2 µM (active)"
- compound: "COc1ccc2cc(S(=O)(=O)N[C@H](CC(=O)N[C@H](Cc3ccc(CN4[C@H](C)CCC[C@@H]4C)cc3)C(=O)N(C)C(C)C)c3ccc4c(c3)OCO4)ccc2c1"
  experimental.result: "inactive"

Batch request: AC50 for each of the following compounds.
1. O=C1O[C@H]([C@@H](O)CO)C(O)=C1O
2. NC(=O)c1nc(-c2cccc(-c3cc(F)ccc3OCC(F)(F)C(F)(F)F)c2)n[nH]1
3. Cc1cc2c(cc1C(F)(F)F)N(C(=O)Nc1ccc(Oc3cccnc3C)nc1)CC2
4. c1ccc2ccccc2c1
5. CCCCCCCCCCCC[N+](C)(C)C

["inactive", "inactive", "inactive", "inactive", "inactive"]

Batch request: AC50 for each of the following compounds.
1. CN(C)c1ccc(C(=C2C=CC(=[N+](C)C)C=C2)c2ccc(N(C)C)cc2)cc1
2. O=C(OCCCCCCOC(=O)c1ccccc1)c1ccccc1
3. C[C@]12CC[C@@H]3c4ccc(O)cc4CC[C@H]3[C@@H]1CC[C@H]2O

1: 2.48 µM (active); 2: inactive; 3: inactive

Batch request: AC50 for each of the following compounds.
1. CO[C@H]1/C=C/O[C@@]2(C)Oc3c(C)c(O)c4c(O)c(c(/C=N/N5CCN(C)CC5)c(O)c4c3C2=O)NC(=O)/C(C)=C\C=C\[C@H](C)[C@H](O)[C@@H](C)[C@@H](O)[C@@H](C)[C@H](OC(C)=O)[C@@H]1C
2. CCO[Si](CCCNC(N)=O)(OCC)OCC

["12 µM (active)", "inactive"]
